test system: M19-MEL; assay: NCI tumour cell line growth inhibition, 48 h
Activity calls are given as the source filed them. Rule as the data show it: active = GI50 up to about 1.1 µM and inactive = higher.
measure.name: GI50

q: Item under review: CCCCCCCCCCCCCCCc1nnc(S)[nH]1 . Reported GI50?
a: > 100 µM (inactive)

q: How about O=C1CCC2CCOc3ccc(O)c1c32 (stereo not drawn) ?
a: > 100 µM (inactive)

q: Param item: C=CC(=O)c1ccc2c(c1)OCCOCCOCCOCCOCCO2
a: 17.8 µM (inactive)

q: Same read-out for Cc1ccc(S(=O)(=O)N/N=C/C(C)C)cc1 ?
a: > 100 µM (inactive)

q: Record: COc1cc2c(oc(=O)c3c4oc([Si](C)(C)C)cc4cc(OC)c23)c2cccc(OCc3ccccc3)c12
a: 48.2 µM (inactive)

q: Next record, please: O=C(/C=C(\O)C(=O)O)/C=C(\O)c1ccccc1
a: > 4.65 µM (inactive)

q: For CCOC(=O)Cn1c(=O)[nH]c(=O)c2[nH]cnc21 then?
a: > 100 µM (inactive)

q: Let us now turn to COC(=O)C1=C(C)C(=O)C2(CCCCCC2C(=O)OC)C1 (stereo not drawn)
a: > 100 µM (inactive)

====

tested on: HOP-62; test: NCI tumour cell line growth inhibition, 48 h
The source made the active and inactive calls. No stated cut-off is given here; in the data, active = GI50 up to about 1.1 µM and inactive = higher.
Respond using exactly one of the listed classes: Yes = active, No = inactive

q: // outcome(item) with item = COc1ccc2nc3c(C)cc4ccccc4n3c2c1
a: No

q: Another: COC1(OC)C=CC(=O)C=C1
a: No

q: Another compound to check: O=Cc1ccc(-c2nccc3c2[nH]c2ccccc23)o1
a: No

q: For COc1cc2c(c(OC)c1OC)CCNC2C1=C(O)COC1=O (configuration not stated) then?
a: No

q: Please give the result for NC(=O)NC(=O)CCC(NS(=O)(=O)c1ccccc1)C(=O)NC(N)=O (configuration not stated) too.
a: No

q: Also need C=C1CC[C@@H](Br)C(C)(C)[C@]12CCC(C)(O)C(Cl)C2 (some centres not stated) , thanks.
a: No

q: What do you get for Clc1cc(N/N=C(\c2ccccc2)c2ccccn2)ncn1 ?
a: Yes

q: And what about the compound O=C(Cc1nc2ccccc2s1)Nc1cccc(C(F)(F)F)c1 ?
a: No

q: Repeat for the following compound: Cc1cc(NS(=O)(=O)c2ccc(NC(=O)c3cccc4c(=O)c5ccccc5[nH]c34)cc2)no1
a: No

q: What would you report for Cc1[nH]c(-c2ccccc2)c2nc(N(C)C)oc(=O)c12 ?
a: No

q: Now consider CC(=O)OC/C=C(\C)CCC(Br)C(C)(C)Br (configuration not stated) and answer again.
a: No

q: // same read-out, input: CN(C)CCNc1ccccn1
a: No

====

system: OVCAR-3; assay: NCI tumour cell line growth inhibition, 48 h
Active and inactive are the calls of the source. No stated cut-off is given here; in the data, active = GI50 up to about 1.1 µM and inactive = higher.
A correct response names exactly one class from active, inactive

q: Just curious, what result did Cc1ccc(-c2ccc3c(c2)Sc2ccccc2O3)n1C get here?
a: active

q: Now consider CCOC(=O)c1sc2c(C(=O)OCC)n3ccccc3c2c1N and answer again.
a: inactive

q: Same question for O=C1c2ccccc2C(=O)N1C/C=N/NS(=O)(=O)c1ccc(Br)cc1 please.
a: inactive

q: What do you get for CCc1cccc(C(C)C)c1NC(=O)/C(=N\NC(N)=O)C(C(=O)OC)c1cnc2ccccc2n1 (stereo unspecified) ?
a: inactive

q: And then Nc1nnnn1NC(=O)NCCCl , what is it?
a: inactive

q: Queued: CCN(CC)Cc1cc(/N=N\c2c(O)ccc3c(/N=N\c4ccc(O)c(CN(CC)CC)c4)c(O)ccc23)ccc1O
a: inactive
